# assay summary: NCI Yeast Anticancer Drug Screen. Data for the mlh1 rad18 strain (AID 175)
# condition notes: S. cerevisiae mlh1 rad18 strain growth inhibition; at 50.0 µM (retest, dose inferred, filed as 5.0); active compounds read high
About 79,000 compounds went through this panel and 15% of them were active in at least one assay; those are over-represented in the sample as a whole.
Measured growth inhibition of individual entries
Express it in %; write the number only.

Illustrative cases are given below, each with its answer.
molecule	growth inhibition, %
SCCCCCCCCCCS	96
BrCc1ccc([Si](c2ccccc2)(c2ccccc2)c2ccc(CBr)cc2)cc1	-30
COc1ccc(N=Nc2ccc3oc(=O)c(C(=O)Nc4ccccc4C)cc3c2)cc1	98

For reference, reported growth inhibition for CCCCCCCCCCCCN(CCO)CCO stands at 91

For reference, reported growth inhibition for CC(=O)O[C@@H]1CO[C@H]2O[C@H]3[C@@H](C(C=O)=C[C@H](O)[C@@H]4C5=C(C(C)C)CC[C@]5(C)CC[C@@]34C)[C@@]2(O)C1=O stands at 99

For reference, reported growth inhibition for COC12C=CC(CC1)c1c2c(O)c2ccncc2c1O (stereo unspecified) stands at 86

----------
# assay summary: NCI Yeast Anticancer Drug Screen. Data for the bub3 strain (AID 167)
# condition notes: S. cerevisiae bub3 mutant strain, at 50.0 µM (retest, dose inferred, filed as 5.0)
# Method: Growth inhibition of yeast strains with defined genetic alterations is measured as a screen for potential anti-cancer activity. Selected strains with alterations in DNA damage repair or cell cycle control were exposed to compounds and growth inhibition was measured relative to vehicle treated controls. The strain used in this assay is bub3
The panel holds about 79,000 compounds, 15% with a hit somewhere; the sample as a whole holds those more often. Calls of active or inactive are those of the source. Cut-off read from the data, not from the text of the source: active = growth inhibition above about 70%; inactive = the rest.
The categories you may choose from are active, inactive

Example entries and their recorded answers appear below.
molecule	class
Cc1ccc(-c2ccccc2)n1-c1cc(Cl)ccc1O	active
COc1cc(C(c2cc3c(cc2O)OCO3)N2CCN(C(c3cc(OC)c(O)c(OC)c3)c3cc4c(cc3O)OCO4)CC2)cc(OC)c1O (stereo not given)	inactive
COC(=O)n1c(C[P+](c2ccccc2)(c2ccccc2)c2ccccc2)cc2ccccc21	active
COc1ccc(C2c3cc4c(cc3OC(O)C2C)OCO4)c(OC)c1 (stereo not given)	active

Query :: Would you mind telling me which call this test gave O=C(CCl)NC(=O)N(/N=C/c1ccco1)c1ccccc1 ?
Result :: active

----------
Measured growth inhibition of individual entries
# assay summary: NCI Yeast Anticancer Drug Screen. Data for the rad50 strain (AID 155);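 note: 0% = growth of vehicle-only cultures of the same strain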
# condition notes: S. cerevisiae rad50 strain growth inhibition; at 5.0 µM (retest, dose inferred, filed as 0.5); active compounds read high
# Method: Growth inhibition of yeast strains with defined genetic alterations is measured as a screen for potential anti-cancer activity. Selected strains with alterations in DNA damage repair or cell cycle control were exposed to compounds and growth inhibition was measured relative to vehicle treated controls. The strain used in this assay is rad50
The panel holds about 79,000 compounds, 15% with a hit somewhere; the sample as a whole holds those more often. Calls of active or inactive are those of the source. Rule as the data show it: active = growth inhibition above about 70%; inactive = the rest.

compound	endpoint value
C#CC(CC)(CC)NC(=O)NC(C)(C)C	0% (inactive)
C=CCCCN1C(=O)C2C3c4ccccc4C(C=O)(c4ccccc43)C2C1=O (stereo unspecified)	29% (inactive)
Cc1ccc(S(=O)(=O)NNc2nc(N3CCOCC3)nc(N3CCOCC3)n2)cc1	1% (inactive)
N#CSCC(=O)c1ccc2ccccc2c1	67% (inactive)
COC1OC(CO)C(O)C(OC(=O)c2ccc([N+](=O)[O-])cc2)C1OS(=O)(=O)c1ccc(C)cc1 (stereo unspecified)	2% (inactive)
CCCCN(CCCC)CCCCCCNc1cc(OC)cc2cccnc12	4% (inactive)
Cc1cc(O)n(Cc2ccccc2)c(=O)c1	-151% (inactive)
CNC(C)C(=O)c1ccc2ccc3ccccc3c2c1 (stereo unspecified)	-3% (inactive)
CN(C)CCCNc1ccc(O)c2c1C(=O)c1ccccc1C2=O	93% (active)
CC1=C(C)C(=O)C2=C(OCCCO2)C1=O	-9% (inactive)

For reference, reported growth inhibition for Oc1cccnc1CN1CCCCC1 stands at -5% (inactive)

For reference, reported growth inhibition for CN(C)CC(C)(C)C(/C=C/c1ccccc1)=N\Nc1ccccc1 stands at 3% (inactive)

For reference, reported growth inhibition for COc1ccc(/C=N/NS(=O)(=O)c2ccc(C)cc2)cc1 stands at 13% (inactive)

For reference, reported growth inhibition for O=C(/C=C/c1cccnc1)c1cc(Cl)ccc1O stands at 3% (inactive)

For reference, reported growth inhibition for CC(C)N=C(NC(C)C)SCCCCCCSC(=NC(C)C)NC(C)C stands at 2% (inactive)
